Molecular target: Human NHE3 (Homo sapiens, UniProt P48764)
Construct: expressed in transfected cells; host or cells: Opossum kidney (OK) cells (ATCC), electroporation
Sequence (P48764 26-834): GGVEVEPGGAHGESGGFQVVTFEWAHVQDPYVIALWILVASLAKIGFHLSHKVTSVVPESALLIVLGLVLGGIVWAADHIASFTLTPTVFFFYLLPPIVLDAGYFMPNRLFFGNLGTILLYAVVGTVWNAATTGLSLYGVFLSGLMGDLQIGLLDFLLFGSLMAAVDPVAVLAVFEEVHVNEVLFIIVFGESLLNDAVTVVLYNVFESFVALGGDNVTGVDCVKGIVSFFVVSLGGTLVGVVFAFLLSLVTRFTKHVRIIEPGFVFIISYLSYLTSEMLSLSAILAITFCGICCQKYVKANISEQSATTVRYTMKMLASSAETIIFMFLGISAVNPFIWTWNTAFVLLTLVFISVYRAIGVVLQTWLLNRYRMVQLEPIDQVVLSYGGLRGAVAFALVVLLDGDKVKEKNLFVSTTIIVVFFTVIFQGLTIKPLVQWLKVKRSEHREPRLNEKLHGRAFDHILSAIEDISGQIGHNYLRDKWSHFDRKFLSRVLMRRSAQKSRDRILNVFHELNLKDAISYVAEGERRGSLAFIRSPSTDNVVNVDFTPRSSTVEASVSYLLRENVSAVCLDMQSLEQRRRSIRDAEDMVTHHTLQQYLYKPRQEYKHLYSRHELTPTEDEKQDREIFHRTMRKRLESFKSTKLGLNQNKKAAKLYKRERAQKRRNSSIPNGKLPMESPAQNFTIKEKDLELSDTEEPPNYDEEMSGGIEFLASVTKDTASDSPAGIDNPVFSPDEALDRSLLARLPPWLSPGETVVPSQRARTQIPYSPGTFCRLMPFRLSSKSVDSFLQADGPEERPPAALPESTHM
Test: Cell-based NHE3 activity under prompt conditions (OK cells, BCECF pH recovery), human NHE3
Settings: prompt conditions
Item-by-item account of Prompt Human NHE3 pIC50
measured.endpoint: Prompt Human NHE3 pIC50

molecule="CN1Cc2c(Cl)cc(Cl)cc2[C@H](c2cccc(S(=O)(=O)NCCOCCOCCNC(=O)CN(CCOCCOCCN(CC(=O)NCCOCCOCCNS(=O)(=O)c3cccc([C@@H]4CN(C)Cc5c(Cl)cc(Cl)cc54)c3)CC(=O)NCCOCCOCCNS(=O)(=O)c3cccc([C@@H]4CN(C)Cc5c(Cl)cc(Cl)cc54)c3)CC(=O)NCCOCCOCCNS(=O)(=O)c3cccc([C@@H]4CN(C)Cc5c(Cl)cc(Cl)cc54)c3)c2)C1 [compound 85]" result_number=6.10
molecule="CCCCCCCCCCC(=O)NC(CCC(=O)NCCOCCOCCNS(=O)(=O)c1cccc([C@@H]2CN(C)Cc3c(Cl)cc(Cl)cc32)c1)(CCC(=O)NCCOCCOCCNS(=O)(=O)c1cccc([C@@H]2CN(C)Cc3c(Cl)cc(Cl)cc32)c1)CCC(=O)NCCOCCOCCNS(=O)(=O)c1cccc([C@@H]2CN(C)Cc3c(Cl)cc(Cl)cc32)c1 [compound 94]" result_number=5.60
molecule="CN1Cc2c(Cl)cc(Cl)cc2[C@H](c2cccc(S(=O)(=O)NCCOCCOCCNC(=O)NCCCC(CCCNC(=O)NCCOCCOCCNS(=O)(=O)c3cccc([C@@H]4CN(C)Cc5c(Cl)cc(Cl)cc54)c3)(CCCNC(=O)NCCOCCOCCNS(=O)(=O)c3cccc([C@@H]4CN(C)Cc5c(Cl)cc(Cl)cc54)c3)NC(=O)NC[C@H](O)[C@@H](O)[C@H](O)[C@H](O)CO)c2)C1 [compound 167]" result_number=8.37

###

Item-by-item account of Prompt Rat NHE3 pIC50
Target: Rat NHE3 (Rattus norvegicus, UniProt P26433)
Construct: expressed in transfected cells; host or cells: Opossum kidney (OK) cells (ATCC), electroporation
Sequence (P26433 29-831): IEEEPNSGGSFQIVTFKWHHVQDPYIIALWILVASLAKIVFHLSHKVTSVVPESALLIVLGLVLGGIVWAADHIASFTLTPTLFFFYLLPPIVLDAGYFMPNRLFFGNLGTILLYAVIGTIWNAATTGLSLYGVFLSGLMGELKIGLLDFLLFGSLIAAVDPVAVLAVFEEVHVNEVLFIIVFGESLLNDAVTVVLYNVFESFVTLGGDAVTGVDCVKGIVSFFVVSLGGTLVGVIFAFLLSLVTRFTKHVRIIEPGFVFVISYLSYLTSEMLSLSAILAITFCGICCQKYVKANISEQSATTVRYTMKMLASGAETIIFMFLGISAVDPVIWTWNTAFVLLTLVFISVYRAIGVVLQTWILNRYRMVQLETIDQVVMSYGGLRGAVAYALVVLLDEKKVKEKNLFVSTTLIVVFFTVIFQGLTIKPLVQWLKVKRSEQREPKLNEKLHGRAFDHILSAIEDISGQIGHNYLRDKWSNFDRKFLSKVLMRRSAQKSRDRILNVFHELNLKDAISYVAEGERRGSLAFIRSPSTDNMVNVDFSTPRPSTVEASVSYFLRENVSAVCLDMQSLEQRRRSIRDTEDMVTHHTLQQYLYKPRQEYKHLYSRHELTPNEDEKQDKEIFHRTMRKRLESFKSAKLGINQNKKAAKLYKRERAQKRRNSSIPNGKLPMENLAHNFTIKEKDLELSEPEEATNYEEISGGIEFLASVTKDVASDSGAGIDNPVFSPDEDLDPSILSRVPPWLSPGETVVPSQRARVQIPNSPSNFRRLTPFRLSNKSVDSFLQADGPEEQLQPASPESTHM
Test: Cell-based NHE3 activity under prompt conditions (OK cells, BCECF pH recovery), rat NHE3
Conditions: prompt conditions
measured.endpoint: Prompt Rat NHE3 pIC50

compound="CN1Cc2c(Cl)cc(Cl)cc2[C@H](c2cccc(S(=O)(=O)NCCOCCOCCOCCNC(=O)NCCCN(CCCNC(=O)NCCOCCOCCOCCNS(=O)(=O)c3cccc([C@@H]4CN(C)Cc5c(Cl)cc(Cl)cc54)c3)CCCNC(=O)NCCOCCOCCOCCNS(=O)(=O)c3cccc([C@@H]4CN(C)Cc5c(Cl)cc(Cl)cc54)c3)c2)C1 [compound 64]" result_number=7.40
compound="NC(N)=Nc1nc(-c2ccc(N3CCN(CCOCCOCCOCCNC(=O)NCCOCCOCCNC(=O)CN(CCN(CC(=O)O)CC(=O)NCCOCCOCCNC(=O)NCCOCCOCCOCCN4CCN(c5ccc(-c6nc(N=C(N)N)nc7ccc(Cl)cc67)cc5)CC4)CC(=O)O)CC3)cc2)c2cc(Cl)ccc2n1 [compound 46]" result_number=7.80

###

Item-by-item account of Prompt Rat NHE3 pIC50
Target: Rat NHE3 (Rattus norvegicus, UniProt P26433)
Construct: expressed in transfected cells; host or cells: Opossum kidney (OK) cells (ATCC), electroporation
Assay: Cell-based NHE3 activity under prompt conditions (OK cells, BCECF pH recovery), rat NHE3
Settings: prompt conditions
measured.endpoint: Prompt Rat NHE3 pIC50

molecule="CCCCCCCCCCC(=O)NCCOCCOCCOCCNS(=O)(=O)c1cccc([C@@H]2CN(C)Cc3c(Cl)cc(Cl)cc32)c1 [compound 92]" qualifier_operator=< result_number=5.00
molecule="CCCCCCCCOc1ccc(CNCCOCCOCCOCCNS(=O)(=O)c2cccc([C@@H]3CN(C)Cc4c(Cl)cc(Cl)cc43)c2)cc1 [compound 111]" qualifier_operator=< result_number=5.00
molecule="CN1Cc2c(Cl)cc(Cl)cc2[C@H](c2cccc(S(=O)(=O)NCCOCCOCCOCCNC(=O)c3ccc(-c4ccc(Cl)cc4)cc3)c2)C1 [compound 93]" qualifier_operator=< result_number=5.00
molecule="CN1Cc2c(Cl)cc(Cl)cc2C(c2cccc(S(N)(=O)=O)c2)C1 (stereo not shown) [compound 1]" qualifier_operator== result_number=6.60
molecule="CN(CC(=O)NCCOCCOCCOCCNS(=O)(=O)c1ccc(OC2c3ccccc3CC2N2CCCCC2)cc1)CC(=O)NCCOCCOCCOCCNS(=O)(=O)c1ccc(OC2c3ccccc3CC2N2CCCCC2)cc1 (stereo not shown) [compound 52]" qualifier_operator== result_number=7.35
molecule="CN1Cc2c(Cl)cc(Cl)cc2[C@H](c2cccc(S(=O)(=O)NCCOCCOCCOCCNC(=O)CCC(CCC(=O)NCCOCCOCCOCCNS(=O)(=O)c3cccc([C@@H]4CN(C)Cc5c(Cl)cc(Cl)cc54)c3)(CCC(=O)NCCOCCOCCOCCNS(=O)(=O)c3cccc([C@@H]4CN(C)Cc5c(Cl)cc(Cl)cc54)c3)NC(=O)c3ccc(-c4ccc(Cl)cc4)cc3)c2)C1 [compound 91]" qualifier_operator== result_number=5.30
molecule="CCC(=O)NC(CCC(=O)NCCOCCOCCOCCNS(=O)(=O)c1cccc([C@@H]2CN(C)Cc3c(Cl)cc(Cl)cc32)c1)(CCC(=O)NCCOCCOCCOCCNS(=O)(=O)c1cccc([C@@H]2CN(C)Cc3c(Cl)cc(Cl)cc32)c1)CCC(=O)NCCOCCOCCOCCNS(=O)(=O)c1cccc([C@@H]2CN(C)Cc3c(Cl)cc(Cl)cc32)c1 [compound 89]" qualifier_operator== result_number=7.10
molecule="O=C(NCCCCNC(=O)NCCOCCOCCOCCNS(=O)(=O)c1ccc(O[C@H]2c3ccccc3C[C@@H]2N2CCCCC2)cc1)NCCOCCOCCOCCNS(=O)(=O)c1ccc(O[C@H]2c3ccccc3C[C@@H]2N2CCCCC2)cc1 (racemic) [compound 51]" qualifier_operator== result_number=7.40
molecule="CN(C)[C@H]1Cc2c(F)cc(Cl)cc2[C@@H]1Oc1ccc(S(=O)(=O)NCCOCCOCCNC(=O)NCCCCNC(=O)NCCOCCOCCNS(=O)(=O)c2ccc(O[C@H]3c4cc(Cl)cc(F)c4C[C@@H]3N(C)C)cc2)cc1 [compound 166]" qualifier_operator=< result_number=5.00
molecule="CCCCCCCCOCCOCCOCCOCCOCCOC(=O)NCCOCCOCCOCCNS(=O)(=O)c1cccc([C@@H]2CN(C)Cc3c(Cl)cc(Cl)cc32)c1 [compound 102]" qualifier_operator== result_number=6.60

###

Tested on: absorption of sodium from the intestinal lumen
Experiment: Inhibition of intestinal sodium absorption: urinary sodium (uNa) 16 h after single oral dose in rats
Assay type: in vivo, rat
Conditions: oral gavage, dose 10 mg/kg, 16 h post-dose
Method: Inhibition of intestinal sodium and phosphate absorption. Urinary sodium concentration and fecal form were measured to assess the ability of selected example compounds to inhibit the absorption of sodium from the intestinal lumen. […] After dose administration animals were placed in individual metabolic cages where they were also fed the same chow in meal form and watered ad libitum. At 16 h post-dose, the urine samples were collected and fecal form was assessed by two independent observations. […]
# if measured Urine Na % of control < 60%: 1.0  # else: 0.0

compound_structure=CN1Cc2c(Cl)cc(Cl)cc2[C@H](c2cccc(S(=O)(=O)NCCOCCOCCOCCNC(=O)CN(CC(=O)NCCOCCOCCOCCNS(=O)(=O)c3cccc([C@@H]4CN(C)Cc5c(Cl)cc(Cl)cc54)c3)[C@@H]3CCCC[C@H]3N(CC(=O)NCCOCCOCCOCCNS(=O)(=O)c3cccc([C@@H]4CN(C)Cc5c(Cl)cc(Cl)cc54)c3)CC(=O)NCCOCCOCCOCNS(=O)(=O)c3cccc([C@@H]4CN(C)Cc5c(Cl)cc(Cl)cc54)c3)c2)C1 discrete_label=0.0
compound_structure=CN1Cc2c(Cl)cc(Cl)cc2[C@H](c2cccc(S(=O)(=O)NCCOCCOCCNC(=O)NCCN(CCNC(=O)NCCOCCOCCNS(=O)(=O)c3cccc([C@@H]4CN(C)Cc5c(Cl)cc(Cl)cc54)c3)C(=O)CCCCCCCCCCC(=O)N(CCNC(=O)NCCOCCOCCNS(=O)(=O)c3cccc([C@@H]4CN(C)Cc5c(Cl)cc(Cl)cc54)c3)CCNC(=O)NCCOCCOCCNS(=O)(=O)c3cccc([C@@H]4CN(C)Cc5c(Cl)cc(Cl)cc54)c3)c2)C1 discrete_label=0.0
compound_structure=CN1Cc2c(Cl)cc(Cl)cc2[C@H](c2cccc(S(=O)(=O)NCCOCCOCCOCCNC(=O)c3cc(C(=O)NCCOCCOCCOCCNS(=O)(=O)c4cccc([C@@H]5CN(C)Cc6c(Cl)cc(Cl)cc65)c4)cc(C(=O)NCCOCCOCCOCCNS(=O)(=O)c4cccc([C@@H]5CN(C)Cc6c(Cl)cc(Cl)cc65)c4)c3)c2)C1 discrete_label=1.0
compound_structure=CN1Cc2c(Cl)cc(Cl)cc2[C@H](c2cccc(S(=O)(=O)NCCOCCOCCNC(=O)CCN(CCC(=O)NCCOCCOCCNS(=O)(=O)c3cccc([C@@H]4CN(C)Cc5c(Cl)cc(Cl)cc54)c3)CCC(=O)NCCOCCOCCNS(=O)(=O)c3cccc([C@@H]4CN(C)Cc5c(Cl)cc(Cl)cc54)c3)c2)C1 discrete_label=1.0
compound_structure=O=C(NCCCCNC(=O)NCCOCCOCCNS(=O)(=O)c1ccc(O[C@H]2c3ccccc3C[C@@H]2N2CCCC2)cc1)NCCOCCOCCNS(=O)(=O)c1ccc(O[C@H]2c3ccccc3C[C@@H]2N2CCCC2)cc1 discrete_label=1.0
